# tested-target: T1, EGFR Fc (human, UniProt P00533 25-645)
# T1 construct: also called EGFR-hFc; recombinant human EGFR-Fc
# assay-details: ELISA, EGFR Fc coated, VHH at 0.08 nM
property-measured: OD450

Example binders with recorded OD450:
[
  {
    "binder": "pgEG-SX55 (VHH, not shown: small tags and cut ends) VHH: QVQLVESGGGLVQPGGSLRLSCAGTGLIFTTYVMGWYRQAPGKQRELVAIVTNGGGTHYADFVKGRFTISRDNAKNTVSLQMNLLKPEDTAVYYCNARHLVRPGTNDYWGQGTLVTVSS",
    "OD450": 0.5
  },
  {
    "binder": "pgEG-SX39 (VHH, not shown: small tags and cut ends) VHH: QVQVAESGGGLVQAGESLRLSCTASGSISTINAVRWYRQTPGKQREFVAYISTDGGTDYADPVKGRFTISRDNAKNTWFLQMNSLKPEDTGVYMCNVVVTPYAYWGQGTQVTVSS",
    "OD450": 0.068
  }
]

I. pgEG-SX6 (VHH, not shown: small tags and cut ends) VHH: QVQLVESGGGTVQAGGSLRLSCVASGMREDIFDMGWYRQAPGLQRELVATITSGGSTDYADSVKGRFTISRDNTENTLNLQMNMLKPEDTAVYYCNALYFPPSGGRSSEFWGQGTLVTVSS
II. pgEG5 (VHH, not shown: small tags and cut ends) VHH: QVQLVESGGGLVQPGGSLRLSCTASHNIFSDNAMAWSRQAPGAQRELVARIATGGNTYYPDSVKGRFTISRDNAKNTVYLQMNNLTPDDTAVYYCYAERWTGLEYSRTYWGQGTQVTVSS
Prompt: Select the item with the higher value of OD450 from the options I and II listed. // caller expects the label of the chosen entry
Response: I

1. pgEG-SX40 (VHH, not shown: small tags and cut ends) VHH: QVQLVESGGGLVQAGGSLRLSCTGSGIRFSFYTLGWYRQAPGKQRELVAEIYSSDNAKYEDSVKGRFAISRDNAKNSVSLQMNSLKPEDTAVYYCNVRATDYWGPGTQVTVSS
2. pgEG-SX20 (VHH, not shown: small tags and cut ends) VHH: QVQLVESGGGLVQAGGSLRLSCAGARSAFSIKPMTWYRQAPGKERELVAYFNSGGSTNYADSVKGRFTISRDNAKNTMYLQMNNLKPEDTAVYYCNAIPPLGSWGQGTQVTVSS
Prompt: // compare measured OD450, left 1 , right 2 , return larger Write the label of whichever entry you select.
Response: 2

Entry source: patent US20250376535A1
